pIC50: −log10 of the molar value.
Quick record of pIC50 values for PARP7 (Homo sapiens).

Solved entries (count: 3):
Query: Data request, read-out pIC50, for O=C(COC1CCOc2c1n[nH]c(=O)c2C1CC1)N1CCN(c2ncc(C(F)(F)F)cn2)CC1 (single isomer, unassigned) [Compound 129]
Response: < 6.00

Query: Next compound: O=C(CC1CN(c2n[nH]c(=O)c3ccccc23)CCO1)N1CCN(c2ncc(C(F)(F)F)cn2)CC1 (single isomer, unassigned)
Response: > 7.00

Query: Next compound: `Cc1c(Nc2cccc(C(=O)N3CCN(c4ncc(C(F)(F)F)cn4)CC3)c2)n[nH]c(=O)c1C(F)(F)F`
Response: > 7.00

# context switch: different compound, same pIC50
Query: Data request, read-out pIC50, for `N#Cc1cnc(N2CCN(C(=O)c3cccc(Oc4n[nH]c(=O)c(C(F)(F)F)c4N4CC5(CCC5)C4)c3)CC2)nc1`
Response: > 7.00

====

The compounds listed here are annotated with their pIC50.
Target: PARP7 (Homo sapiens, UniProt Q7Z3E1)
Assay: PARP7 TR-FRET assay (binding, displacement of biotinylated Probe A)
Details: 6 nM PARP7, 2 nM Probe A, 25° C., 30 min
Protocol: Biological Assay Example A: PARP7 TR-FRET Assay A time-resolved fluorescence energy transfer (TR-FRET) assay was used to test binding activity of compounds to PARP7. Two microliter test compound was added in 384-well plate. […]
pIC50: −log10 of the molar value.

Solved entries (count: 2):
Query: Data request, read-out pIC50, for CS(=O)(=O)c1ccc2c(c1)N(c1cc(C(F)(F)F)c(=O)[nH]n1)CC(CC(=O)N1CCN(c3ncc(C(F)(F)F)cn3)CC1)O2 (single isomer, unassigned)
Response: > 7.00

Query: Next compound: `C[C@@H]1CN(C(=O)c2cncc(Oc3n[nH]c(=O)c(C(F)(F)F)c3N3CC4(C3)CC(F)(F)C4)c2)CCN1c1cnc(C(F)(F)F)cn1`
Response: > 7.00

Next:
Query: Data request, read-out pIC50, for N#CC1(c2ccnc(N3CCN(C(=O)CC4CN(c5cc(C(F)(F)F)c(=O)[nH]n5)c5cc(F)ccc5O4)CC3)n2)CC1 (single isomer, unassigned) [Compound 343]
Response: > 7.00

Query: Next compound: O=C(CC1CN(c2cc(C(F)(F)F)c(=O)[nH]n2)c2ccccc2O1)N1CCN(c2cnc(C(F)(F)F)cn2)CC1 (single isomer, unassigned)
Response: 6.00 to 7.00

Query: Next compound: `C[C@@H]1C[C@H](OCC(=O)N2CCN(c3ncc(C(F)(F)F)cn3)CC2)c2n[nH]c(=O)c(C(F)(F)F)c2O1`
Response: 6.00 to 7.00

====

Target: PARP7 (Homo sapiens)
Sequence (Q7Z3E1 1-657): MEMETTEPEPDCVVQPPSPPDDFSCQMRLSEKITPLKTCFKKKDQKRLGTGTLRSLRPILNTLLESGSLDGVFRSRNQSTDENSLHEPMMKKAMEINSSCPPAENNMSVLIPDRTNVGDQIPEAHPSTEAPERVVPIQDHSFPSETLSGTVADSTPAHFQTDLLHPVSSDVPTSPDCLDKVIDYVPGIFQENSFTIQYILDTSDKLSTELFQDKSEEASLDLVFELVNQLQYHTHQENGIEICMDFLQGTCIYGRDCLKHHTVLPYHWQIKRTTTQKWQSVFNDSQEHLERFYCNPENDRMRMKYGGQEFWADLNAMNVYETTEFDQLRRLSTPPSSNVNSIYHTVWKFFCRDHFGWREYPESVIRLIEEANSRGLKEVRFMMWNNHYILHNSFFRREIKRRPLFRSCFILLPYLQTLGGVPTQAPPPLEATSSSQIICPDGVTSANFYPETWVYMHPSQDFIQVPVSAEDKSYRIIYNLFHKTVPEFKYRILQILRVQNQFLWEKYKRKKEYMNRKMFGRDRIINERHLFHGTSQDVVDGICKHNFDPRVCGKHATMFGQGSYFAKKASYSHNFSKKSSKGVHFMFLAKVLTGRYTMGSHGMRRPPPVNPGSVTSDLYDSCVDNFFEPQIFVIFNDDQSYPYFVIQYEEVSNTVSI
pIC50: −log10 of the molar value.
OBSERVABLE: pIC50

Solved entries (count: 2):
Query: Return pIC50 measured with PARP7 (Homo sapiens) given this compound: `CC(C)C1CN(c2c(Oc3cccc(C(=O)N4CCN(c5ncc(C(F)(F)F)cn5)CC4)c3)n[nH]c(=O)c2C(F)(F)F)C1`
Response: > 7.00

Query: Next compound: `O=C([C@H]1CN(c2cc(C(F)(F)F)c(=O)[nH]n2)CCO1)N1CCN(c2ncc(C(F)(F)F)cn2)CC1`
Response: 6.00 to 7.00

Next:
Query: Return pIC50 measured with PARP7 (Homo sapiens) given this compound: `O=C(c1cccc(Oc2n[nH]c(=O)c(C(F)(F)F)c2N2CC3(CCC3)C2)c1)N1CCN(c2ccc(C(F)(F)F)cn2)CC1`
Response: > 7.00

Query: Next compound: O=C(CC1CN(c2n[nH]c(=O)c3c(F)cc(Cl)cc23)CCO1)N1CCN(c2ncc(C(F)(F)F)cn2)CC1 (stereo not shown)
Response: > 7.00
